Target: T1, Human BSSL (bile salt-stimulated lipase), native (human, UniProt P19835 21-753)
T1 construct: Native full-length protein purified from human milk (Astra Hässle AB); also called hBSSL; non-biotinylated human BSSL
T1 sequence: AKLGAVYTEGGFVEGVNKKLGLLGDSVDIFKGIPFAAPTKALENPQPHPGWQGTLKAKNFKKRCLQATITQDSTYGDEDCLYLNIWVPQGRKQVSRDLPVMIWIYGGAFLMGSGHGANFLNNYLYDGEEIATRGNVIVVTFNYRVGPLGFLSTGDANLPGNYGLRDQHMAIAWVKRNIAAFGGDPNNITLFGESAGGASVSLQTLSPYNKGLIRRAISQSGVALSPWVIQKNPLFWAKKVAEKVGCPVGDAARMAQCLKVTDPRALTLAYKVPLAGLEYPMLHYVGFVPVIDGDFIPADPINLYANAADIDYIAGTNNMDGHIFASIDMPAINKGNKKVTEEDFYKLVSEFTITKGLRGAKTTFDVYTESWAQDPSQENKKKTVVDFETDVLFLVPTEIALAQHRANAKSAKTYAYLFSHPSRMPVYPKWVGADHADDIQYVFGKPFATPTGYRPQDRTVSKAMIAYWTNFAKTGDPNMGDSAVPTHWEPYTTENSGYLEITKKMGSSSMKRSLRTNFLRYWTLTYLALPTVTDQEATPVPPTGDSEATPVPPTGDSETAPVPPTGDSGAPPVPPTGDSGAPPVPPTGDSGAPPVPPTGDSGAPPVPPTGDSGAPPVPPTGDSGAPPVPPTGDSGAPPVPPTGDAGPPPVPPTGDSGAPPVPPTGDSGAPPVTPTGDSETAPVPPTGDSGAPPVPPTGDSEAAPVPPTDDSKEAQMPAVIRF
Experiment: SPR single cycle kinetics, hIgG4 S228P captured by anti-Fab
Observable: log10 Kd (log10 of the value in nM)

{"Binder": "S-SL048-134 hIgG4 S228P (antibody, V domains shown, Tested as human IgG4 S228P) VH: QVQLVQSGAEVKKPGASVKVSCKASGYTFTSYNMHWVRQAPGQGLEWMGVINPSDGATSYAQKFKGRVTMTRDTSTSTVYMELSSLRSEDTAVYYCARDYYGSSPLGYWGQGTLVTVSS VL: DIQMTQSPSSLSASVGDRVTITCRASPSISYLNWYQQKPGKAPKLLIYATSKLPSGVPSRFSGSGSGTDFTLTISSLQPEDFATYYCQQRSSYPTFGQGTKLEIK", "Observed measurement": 0.26}
{"Binder": "S-SL048-66 hIgG4 S228P (antibody, V domains shown, Tested as human IgG4 S228P) VH: QVQLVQSGAEVKKPGASVKVSCKASGYTFTSYNMHWVRQAPGQGLEWMGVINPGDGATSYNQKFKGRVTMTRDTSTSTVYMELSSLRSEDTAVYYCARDYYGSSPLGYWGQGTLVTVSS VL: DIQMTQSPSSLSASVGDRVTITCSASQSISYMNWYQQKPGKAPKLLIYDASSLASGVPSRFSGSGSGTDFTLTISSLQPEDFATYYCHQRSSTPTFGQGTKLEIK", "Observed measurement": 0.90}
{"Binder": "S-SL048-47 hIgG4 S228P (antibody, V domains shown, Tested as human IgG4 S228P) VH: QVQLVQSGAEVKKPGASVKVSCKASGYTFTSYNMHWVRQAPGQGLEWIGVINPGGGYTSYTQKFQGRVTMTRDTSTSTVYMELSSLRSEDTAVYYCARDYYGSSPLGYWGQGTLVTVSS VL: DIQMTQSPSSLSASVGDRVTITCSASPSISYMNWYQQKPGKAPKLLIYATSRLQSGVPSRFSGSGSGTDFTLTISSLQPEDFATYYCQQRSSTPTFGQGTKLEIK", "Observed measurement": 0.93}
{"Binder": "S-SL048-74 hIgG4 S228P (antibody, V domains shown, Tested as human IgG4 S228P) VH: QVQLVQSGAEVKKPGASVKVSCKASGYTFTSYNMHWVRQAPGQGLEWIGVINPGDGATSYAQKFQGRVTMTRDTSTSTVYMELSSLRSEDTAVYYCARDYYGSSPLGYWGQGTLVTVSS VL: DIQMTQSPSSLSASVGDRVTITCRASQSISYLNWYQQKPGKAPKLLIYAASSLASGVPSRFSGSGSGTDFTLTISSLQPEDFATYYCHQRSSSPTFGQGTKLEIK", "Observed measurement": 0.68}
{"Binder": "S-SL048-43 hIgG4 S228P (antibody, V domains shown, Tested as human IgG4 S228P) VH: QVQLVQSGAEVKKPGASVKVSCKASGYTFTSYNMHWVRQAPGQGLEWMGVINPGDGATSYTQKFQGRVTMTRDTSTSTVYMELSSLRSEDTAVYYCARDYYGSSPLGYWGQGTLVTVSS VL: DIQMTQSPSSLSASVGDRVTITCRASPSISYMNWYQQKPGKAPKLLIYAASSLPSGVPSRFSGSGSGTDFTLTISSLQPEDFATYYCQQRSSSPTFGQGTKLEIK", "Observed measurement": 0.08}
{"Binder": "S-SL048-125 hIgG4 S228P (antibody, V domains shown, Tested as human IgG4 S228P) VH: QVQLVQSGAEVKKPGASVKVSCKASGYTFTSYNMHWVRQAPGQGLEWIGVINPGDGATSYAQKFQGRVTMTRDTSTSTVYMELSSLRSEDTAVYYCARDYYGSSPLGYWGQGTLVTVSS VL: DIQMTQSPSSLSASVGDRVTITCRASSSISYLHWYQQKPGKAPKLLIYAASRLPSGVPSRFSGSGSGTDFTLTISSLQPEDFATYYCHQRSSYPTFGQGTKLEIK", "Observed measurement": 0.32}
{"Binder": "S-SL048-45 hIgG4 S228P (antibody, V domains shown, Tested as human IgG4 S228P) VH: QVQLVQSGAEVKKPGASVKVSCKASGYTFTSYNMHWVRQAPGQGLEWMGVINPSDGATSYTQKFQGRVTMTRDTSTSTVYMELSSLRSEDTAVYYCARDYYGSSPLGYWGQGTLVTVSS VL: DIQMTQSPSSLSASVGDRVTITCRASQSISYLHWYQQKPGKAPKLLIYAASRLASGVPSRFSGSGSGTDFTLTISSLQPEDFATYYCHQRSSTPTFGQGTKLEIK", "Observed measurement": 0.98}
{"Binder": "S-SL048-11 hIgG4 S228P (antibody, V domains shown, also called clone 11; mAb11) VH: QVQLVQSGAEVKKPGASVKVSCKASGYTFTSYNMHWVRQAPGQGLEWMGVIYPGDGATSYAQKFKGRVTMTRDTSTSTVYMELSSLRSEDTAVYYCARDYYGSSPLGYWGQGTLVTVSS VL: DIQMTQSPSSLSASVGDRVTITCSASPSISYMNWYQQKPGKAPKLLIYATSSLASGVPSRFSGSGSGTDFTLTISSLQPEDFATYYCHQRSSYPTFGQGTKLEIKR", "Observed measurement": -0.15}
{"Binder": "S-SL048-108 hIgG4 S228P (antibody, V domains shown, Tested as human IgG4 S228P) VH: QVQLVQSGAEVKKPGASVKVSCKASGYTFTSYNMHWVRQAPGQGLEWIGVINPSDGATSYAQKFKGRVTMTRDTSTSTVYMELSSLRSEDTAVYYCARDYYGSSPLGYWGQGTLVTVSS VL: DIQMTQSPSSLSASVGDRVTITCSASPSISYLNWYQQKPGKAPKLLIYATSSLASGVPSRFSGSGSGTDFTLTISSLQPEDFATYYCQQRSSSPTFGQGTKLEIK", "Observed measurement": 0.11}
{"Binder": "S-SL048-79 hIgG4 S228P (antibody, V domains shown, Tested as human IgG4 S228P) VH: QVQLVQSGAEVKKPGASVKVSCKASGYTFTSYNMHWVRQAPGQGLEWMGVINPSDGATSYAQKFQGRVTMTRDTSTSTVYMELSSLRSEDTAVYYCARDYYGSSPLGYWGQGTLVTVSS VL: DIQMTQSPSSLSASVGDRVTITCSASQSISYLNWYQQKPGKAPKLLIYAASRLPSGVPSRFSGSGSGTDFTLTISSLQPEDFATYYCHQRSSYPTFGQGTKLEIK", "Observed measurement": 0.70}

Numbers sourced from patent US20220267469A1.
